Could you please report measured SPOT intensity for the items listed next?
Target: T1, Lsb3, P43603
T1 sequence (P43603 385-451, looked up): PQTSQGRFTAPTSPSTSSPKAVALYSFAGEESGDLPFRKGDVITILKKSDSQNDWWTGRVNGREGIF
Assay: SPOT array
Details: median of control spots 406
Numbers only.

>  <binder>
KWVRRPKLMTPLTFS

>  <observedProperty>
SPOT intensity

>  <value>
5

$$$$
>  <binder>
QGYPRQPQRPQRYHP

>  <observedProperty>
SPOT intensity

>  <value>
46

$$$$
>  <binder>
IHTRRPSSTSQYLIR

>  <observedProperty>
SPOT intensity

>  <value>
0

$$$$

Now for the binder whose SPOT intensity we want.
Record summary for RLPAPPPPPRRGPAP : reported SPOT intensity = 0

Data credit: paper PMC2756588
